Data credit: ChEMBL document CHEMBL4513216

Consider the following compounds and their measured INHIBITION readings.
- System: Plasmodium berghei
- experimental_details: Screen against P. berghei liver stage (PbLuc), transformed with Luciferase, at 10uM
- Format: functional, HepG2
- applied_conditions: tested at 10 uM
Among all 69,000 compounds or so, about 8,600 (12%) showed an effect of 50% or more. The full list was thinned out, with strong results kept by preference.
parameter_measured: INHIBITION (%)

[
  {
    "compound": "CN(C)Cc1cn2c(n1)CN(C1CCOC1)CC2 (centres undefined)",
    "parameter_measured": "INHIBITION",
    "observed_value": -4.32
  },
  {
    "compound": "CC(CNC(=O)CCc1ccccn1)c1ccsc1 (centres undefined)",
    "parameter_measured": "INHIBITION",
    "observed_value": 22.2
  },
  {
    "compound": "COCc1noc(CCC(=O)c2ccc3c(c2)OCCO3)n1",
    "parameter_measured": "INHIBITION",
    "observed_value": -41.4
  },
  {
    "compound": "O=C(c1cscn1)N1CCC2(CN(Cc3ccsc3)C2)C1",
    "parameter_measured": "INHIBITION",
    "observed_value": 45.2
  },
  {
    "compound": "Cc1nn(C)c(N(C)C)c1CNCc1ccc(OCCN(C)C)cc1",
    "parameter_measured": "INHIBITION",
    "observed_value": 27.6
  },
  {
    "compound": "CC(CNC(=O)CCCc1ccccn1)c1ccsc1 (centres undefined)",
    "parameter_measured": "INHIBITION",
    "observed_value": 60.2
  },
  {
    "compound": "CCc1noc(CN2CCCN(C(C)=O)CC2)n1",
    "parameter_measured": "INHIBITION",
    "observed_value": 25.6
  },
  {
    "compound": "CCCC1COCCN1Cc1ccc(NC(C)=O)cc1 (centres undefined)",
    "parameter_measured": "INHIBITION",
    "observed_value": -30
  },
  {
    "compound": "CCc1noc(CN2CCN(C(=O)C3CC3)CC2)n1",
    "parameter_measured": "INHIBITION",
    "observed_value": 54.4
  },
  {
    "compound": "CCc1noc(CN2CCN(C(=O)COC)CC2)n1",
    "parameter_measured": "INHIBITION",
    "observed_value": 25.6
  },
  {
    "compound": "CCc1noc(CN2CCN(C(=O)c3ccccc3F)CC2)n1",
    "parameter_measured": "INHIBITION",
    "observed_value": 43.3
  },
  {
    "compound": "CN1CC(=O)N(c2cccc(F)c2)CC12CCN(Cc1cncn1C)C2 (centres undefined)",
    "parameter_measured": "INHIBITION",
    "observed_value": -15.7
  },
  {
    "compound": "CCc1noc(CN2CCN(C(=O)N(C)C)CC2)n1",
    "parameter_measured": "INHIBITION",
    "observed_value": -27.3
  },
  {
    "compound": "CC(c1cc(F)ccc1F)N(C)C(=O)NCc1ccnc(N(C)C)c1 (centres undefined)",
    "parameter_measured": "INHIBITION",
    "observed_value": 21.6
  },
  {
    "compound": "Cc1cc(-c2ccc(=O)n(C3CCN(S(=O)(=O)N(C)C)CC3)n2)c(C)o1",
    "parameter_measured": "INHIBITION",
    "observed_value": -25.3
  },
  {
    "compound": "CC(C(=O)N1CCCCC1)N1CCN(c2nccs2)CC1 (centres undefined)",
    "parameter_measured": "INHIBITION",
    "observed_value": 41.3
  },
  {
    "compound": "Cn1cc(N2CCC3(CCN(C(=O)[C@H]4CCCO4)C3)C2=O)cn1 (some centres undefined)",
    "parameter_measured": "INHIBITION",
    "observed_value": 12.7
  },
  {
    "compound": "COc1cc2nc3n(c(=O)c2cc1OC)CCN(C(C)=O)CC3",
    "parameter_measured": "INHIBITION",
    "observed_value": 21
  },
  {
    "compound": "CC(C)c1nnc2n1CCN(C(=O)c1cn(-c3ccccc3)nn1)C2",
    "parameter_measured": "INHIBITION",
    "observed_value": 21.1
  }
]
